The reported measurements were obtained from ChEMBL document CHEMBL1201862.

This listing pairs compounds with measured GI50.
Test system: HT-29
Test: NCI tumour cell line growth inhibition, 48 h
Activity calls are given as the source filed them. Rule as the data show it: active = GI50 up to about 1.1 µM and inactive = higher.

[
  {
    "Compound": "Nc1nc2c(ncn2CCCC(c2ccccc2)P(=O)(O)O)c(=O)[nH]1 (stereo not given)",
    "GI50": "> 100 µM (inactive)"
  },
  {
    "Compound": "COc1c(OC2OC(CO)C(O)C(O)C2O)cc2c(c1OC)-c1ccc(OC)c(=O)cc1[C@@H](NC(C)=O)CC2 (stereo not given in full)",
    "GI50": "> 100 µM (inactive)"
  },
  {
    "Compound": "CC(Oc1ccccc1Cl)C(=O)NN1C(=O)CC(=O)N(c2ccccc2)C1=S (stereo not given)",
    "GI50": "54.5 µM (inactive)"
  },
  {
    "Compound": "O=C(N/N=C1/C(=O)c2c3ccccc3cc3cccc1c23)c1cccc(Cl)c1",
    "GI50": "> 100 µM (inactive)"
  },
  {
    "Compound": "Cn1cc(C=C(C#N)C#N)c(=O)n(C)c1=O",
    "GI50": "> 100 µM (inactive)"
  }
]

====

Tested on: EKVX
Assay: NCI tumour cell line growth inhibition, 48 h
The source made the active and inactive calls. No stated cut-off is given here; in the data, active = GI50 up to about 1.1 µM and inactive = higher.
Outcomes: Yes = active, No = inactive

[
  {
    "Compound": "C=Cc1c(-c2ccccc2)cnc2[nH]c3ccccc3c12",
    "Measured Target": "EKVX",
    "Label": "No"
  },
  {
    "Compound": "C/C=C\\C(CC(=O)NCCc1c[nH]c2ccccc12)CC(=O)OC (configuration not stated)",
    "Measured Target": "EKVX",
    "Label": "No"
  },
  {
    "Compound": "COc1nc2c(c(O)c(C)c(=O)n2OC2OCC(OC(C)=O)C(OC(C)=O)C2OC(C)=O)c(=O)n1C (configuration not stated)",
    "Measured Target": "EKVX",
    "Label": "No"
  },
  {
    "Compound": "Cc1n(CC(=O)c2ccc([N+](=O)[O-])cc2)c2c([n+]1CC(C)C)C(=O)c1ccccc1C2=O",
    "Measured Target": "EKVX",
    "Label": "Yes"
  },
  {
    "Compound": "c1ccc2c(c1)nc1n2CSCC1",
    "Measured Target": "EKVX",
    "Label": "No"
  },
  {
    "Compound": "CC1(C)OCC(CO)(Nc2nc(N3CC3)nc(N3CC3)n2)CO1",
    "Measured Target": "EKVX",
    "Label": "No"
  },
  {
    "Compound": "CN(C)/C=N/S(=O)(=O)c1nn2c(C=O)c(-c3ccccc3)nc2s1",
    "Measured Target": "EKVX",
    "Label": "No"
  }
]

====

System: HT-29
Test: NCI tumour cell line growth inhibition, 48 h
The source made the active and inactive calls. Rule as the data show it: active = GI50 up to about 1.1 µM and inactive = higher.
This listing pairs compounds with measured GI50.

[
  {
    "Compound": "O=C1c2cccnc2S(=O)(=O)N1c1ccc(Br)cc1",
    "GI50": "> 100 µM (inactive)"
  },
  {
    "Compound": "Cc1nc(/C(=N\\n2cnnc2)Nc2ccc(Br)cc2)no1",
    "GI50": "> 100 µM (inactive)"
  },
  {
    "Compound": "CC(C)CC1N=C(OCc2ccccc2)OC1=O (stereo not drawn)",
    "GI50": "> 100 µM (inactive)"
  }
]

====

Test system: UACC-257
Assay: NCI tumour cell line growth inhibition, 48 h
Active and inactive are the calls of the source. Rule as the data show it: active = GI50 up to about 1.1 µM and inactive = higher.
Outcomes: True (active), False (inactive)

[
  {
    "Compound": "CC1CC[C@]2(C(=O)O)CCC3(C)C(=C2[C@H]1C)C=CC1[C@@]2(C)CC[C@H](O)C(C)(C)C2CC[C@]13C (stereo not given in full)",
    "Label": "False"
  },
  {
    "Compound": "C[C@@H]1C[C@H](O)[C@]2(O)O[C@@H]3C[C@@]4(C=O)[C@@H](CC=C5[C@@H]4CC[C@]4(C)[C@@H](C6=CC(=O)OC6)CC[C@]54O)C[C@H]3O[C@@H]2O1",
    "Label": "True"
  },
  {
    "Compound": "COCN1CCN=c2c1c1c3c(c4ccccc4n23)CCC1",
    "Label": "False"
  },
  {
    "Compound": "CCOc1ccc(/N=N/c2ccc3oc(=O)c(/C(C)=N/NC(=O)CC(=O)Nc4cccc(OC)c4)cc3c2)cc1",
    "Label": "False"
  },
  {
    "Compound": "Cc1cc(C)c2nccc(NCCCN(C)C)c2c1[N+](=O)[O-]",
    "Label": "False"
  },
  {
    "Compound": "O=C1CC(c2ccccc2)NCCCCN2CC(CN1)C(C(O)c1ccccc1)C2=O (stereo not given)",
    "Label": "False"
  },
  {
    "Compound": "N#CCC(=O)N1CCCCCCC1",
    "Label": "False"
  },
  {
    "Compound": "CC1(Cl)CC2C(CC1Sc1nnnn1-c1ccccc1)C2(C)C (stereo not given)",
    "Label": "False"
  },
  {
    "Compound": "c1ccc2c(c1)CCN2CCN1CCc2ccccc21",
    "Label": "False"
  },
  {
    "Compound": "COc1ccc2c(c1)c1c3c(ccc4ncn2c43)N(CCO)CCN=1",
    "Label": "True"
  }
]

====

This listing pairs molecules with measured GI50.
System: SNB-75
Assay: NCI tumour cell line growth inhibition, 48 h
Calls of active or inactive are those of the source. Cut-off read from the data, not from the text of the source: active = GI50 up to about 1.1 µM and inactive = higher.
Property Label: GI50

[
  {
    "Molecule": "CC(C)(Oc1ccc(-c2cccc3ccccc23)cc1)C(=O)O",
    "Measured Target": "SNB-75",
    "Endpoint Result": "> 100 µM (inactive)"
  },
  {
    "Molecule": "Cc1c(-c2ccccc2)nn2cc(-c3ccccc3)nnc12",
    "Measured Target": "SNB-75",
    "Endpoint Result": "20.7 µM (inactive)"
  },
  {
    "Molecule": "CC(C)OC(=O)c1ccc(NCc2cc(O)ccc2O)cc1",
    "Measured Target": "SNB-75",
    "Endpoint Result": "4.61 µM (inactive)"
  },
  {
    "Molecule": "CN(C)/N=N/c1ccc(S(N)(=O)=O)cc1",
    "Measured Target": "SNB-75",
    "Endpoint Result": "92.9 µM (inactive)"
  },
  {
    "Molecule": "N#CC(C#N)=CNC(=S)Nc1ccc(S(=O)(=O)Nc2nccs2)cc1",
    "Measured Target": "SNB-75",
    "Endpoint Result": "> 100 µM (inactive)"
  },
  {
    "Molecule": "C[N+](C)(C)c1ncnc2c1ncn2C1CCCO1 (stereo not drawn)",
    "Measured Target": "SNB-75",
    "Endpoint Result": "84.9 µM (inactive)"
  },
  {
    "Molecule": "CCC(C)N1CN(c2ccccc2)C2(CCN(CC3COc4ccccc4O3)CC2)C1=O (stereo not drawn)",
    "Measured Target": "SNB-75",
    "Endpoint Result": "36.9 µM (inactive)"
  },
  {
    "Molecule": "O=C(OCCO)C1CC2CC1C1(C2)OCCO1 (stereo not drawn)",
    "Measured Target": "SNB-75",
    "Endpoint Result": "> 100 µM (inactive)"
  }
]

====

System: MCF7
Assay: NCI tumour cell line growth inhibition, 48 h
Calls of active or inactive are those of the source. Rule as the data show it: active = GI50 up to about 1.1 µM and inactive = higher.
Outcomes: active, inactive

[
  {
    "Compound": "COc1cccc(/C=C/c2cnc3ccccc3n2)c1OC",
    "Label": "inactive"
  },
  {
    "Compound": "CSCC[C@@H](NC(=O)[C@H](CC(C)C)NC(=O)C(Cc1cnc[nH]1)NC(=O)CNC(=O)[C@@H](NC(=O)[C@H](C)NC(=O)[C@H](Cc1cn(C=O)c2ccccc12)NC(=O)[C@H](CCC(N)=O)NC(=O)[C@@H](N)CC(N)=O)C(C)C)C(N)=O (some centres undefined)",
    "Label": "inactive"
  },
  {
    "Compound": "Clc1ccc(C2ON=C(c3ccccc3)N2C23CC4CC(CC(C4)C2)C3)c(Cl)c1 (centres undefined)",
    "Label": "inactive"
  },
  {
    "Compound": "Cc1ccc(N2Cc3c(ccc4ccccc34)OP2(=S)N2CCCC2)cc1 (centres undefined)",
    "Label": "inactive"
  },
  {
    "Compound": "Cc1nn2c(=O)c([N+](=O)[O-])c(/C=C/c3ccc(F)cc3)nc2s1",
    "Label": "inactive"
  },
  {
    "Compound": "S=C1Nc2ccccc2SC1c1ccccc1 (centres undefined)",
    "Label": "inactive"
  },
  {
    "Compound": "CC(Nc1ncc2c(n1)-c1ccccc1OC2)C(=O)O (centres undefined)",
    "Label": "inactive"
  },
  {
    "Compound": "CN(C)Cc1c(O)ccc2c1c1c(n2C)C(=O)c2ccccc2C1=O",
    "Label": "inactive"
  },
  {
    "Compound": "Cc1cc(C)c2nccc(NCCCN(C)C)c2c1[N+](=O)[O-]",
    "Label": "inactive"
  },
  {
    "Compound": "COc1cc2c(c(OC)c1OC)-c1ccc(SC)cc1[C@H](OC(=O)c1ccccc1)CC2",
    "Label": "active"
  },
  {
    "Compound": "N#CC(C#N)=CNC(=S)Nc1ccc(S(=O)(=O)Nc2nccs2)cc1",
    "Label": "inactive"
  },
  {
    "Compound": "CC(C)OC1=C(CC2(C)OCCO2)C(=O)C12OCCO2",
    "Label": "inactive"
  },
  {
    "Compound": "C/C=C\\C(CC(=O)NCCc1c[nH]c2ccccc12)CC(=O)OC (centres undefined)",
    "Label": "inactive"
  },
  {
    "Compound": "Cc1[nH]c(=O)[nH]c(=O)c1/C=C/C(=O)NC(CO)CC(C)C (centres undefined)",
    "Label": "inactive"
  }
]
